compounds and their reported IC50
biological target: Plasma Kallikrein (Homo sapiens (Human)); experiment: Determination of related protease inhibition: Plasma Kallikrein (fluorogenic substrate at Km); settings: 25° C., read-out: IC50 (human PKal)
Sequence (P03952 391-638): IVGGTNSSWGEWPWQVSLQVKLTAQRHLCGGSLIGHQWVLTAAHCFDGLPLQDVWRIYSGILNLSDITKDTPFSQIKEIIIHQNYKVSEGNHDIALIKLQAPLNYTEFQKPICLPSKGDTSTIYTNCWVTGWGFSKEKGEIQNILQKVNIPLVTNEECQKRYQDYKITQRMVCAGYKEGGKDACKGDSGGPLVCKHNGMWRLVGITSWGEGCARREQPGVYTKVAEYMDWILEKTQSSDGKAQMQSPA
Sequence (P03952 20-390 partner): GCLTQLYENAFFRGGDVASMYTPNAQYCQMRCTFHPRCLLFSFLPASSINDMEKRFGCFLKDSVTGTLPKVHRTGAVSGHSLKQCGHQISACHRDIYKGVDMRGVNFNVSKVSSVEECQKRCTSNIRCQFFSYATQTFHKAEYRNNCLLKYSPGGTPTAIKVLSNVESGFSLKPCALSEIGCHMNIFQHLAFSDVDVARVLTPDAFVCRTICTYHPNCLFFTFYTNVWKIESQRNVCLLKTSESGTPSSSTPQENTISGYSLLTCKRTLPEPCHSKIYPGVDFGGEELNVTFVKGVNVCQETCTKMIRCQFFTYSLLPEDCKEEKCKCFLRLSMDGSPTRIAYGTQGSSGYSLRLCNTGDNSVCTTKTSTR

Below, each entry is followed by its recorded IC50 result.
compound=CN1CCC(CNc2ccc(CNc3ccc4c(N)nccc4c3)cn2)CC1 testresult="1 to 3 µM"
compound=Cc1cc2c(NCc3ccc(NCC4CCN(C)CC4)nc3)cncc2[nH]1 testresult="10 to 40 µM"
compound=COc1cc(NCc2ccc(NCC3CCN(C)CC3)nc2)cc2ccncc12 testresult="10 to 40 µM"
compound=FC(F)(F)c1nnc2n1CCN(c1ccc(CNc3ccc4cnccc4c3)cn1)C2 testresult="> 40 µM"

Moving on to another compound below.
Look up IC50 with Plasma Kallikrein (Homo sapiens (Human)) for this compound: Nc1nccc2c(N3CCCC3c3ccc(N4CCn5c(nnc5C(F)F)C4)nc3)cccc12 (centres unmarked)
> 40 µM
